Species on record: Mus musculus
test method notes: In vitro inhibitory activity against murine antibody response to T-cell independent B-cell antigen TNP-LPS (type I)
Type: functional
readout type: IC50 (µM)

# count of solved cases: 5
compound structure string	val
CC(C)c1n[nH]c(Nc2ccc(C(F)(F)F)cc2)c1C#N	4.7
Cc1n[nH]c(Nc2ccc(C(F)(F)F)c(Br)c2)c1C#N	20.9
CCNc1[nH]nc(Nc2ccc(C(F)(F)F)cc2)c1C#N	16.9
N#Cc1c(-c2ccccc2)n[nH]c1Nc1ccc(C(F)(F)F)cc1	32
C/C(=N\N)c1c(C)n[nH]c1Nc1ccc(C(F)(F)F)cc1	17.4

I: FC(F)(F)c1ccc(Nc2[nH]nc3c2CCCC3)cc1
II: Cc1n[nH]c(Nc2ccc(F)cc2)c1C#N
III: Cc1n[nH]c(Nc2ccc(C(F)(F)F)cc2)c1-c1ccccc1
Rank the items in ascending order with respect to IC50. Answer by listing the labels in the requested order.
II, I, III
(II: 9.2 µM, I: 13.8 µM, III: 29.4 µM)

* * *

pIC50: −log10 of the molar value.
Observed pIC50, system Dihydroorotate dehydrogenase (quinone), mitochondrial (Homo sapiens, UniProt Q02127).

# count of solved cases: 6
compound structure string	pIC50
Cc1n[nH]c(Nc2ccc(C(F)(F)F)c(Br)c2)c1C#N	< 4.30
Cc1n[nH]c(Nc2ccc(OC(F)(F)F)cc2)c1C#N	6.30
N#Cc1c(Nc2ccc(C(F)(F)F)cc2)n[nH]c1O	< 4.30
N#Cc1c(C2CCCC2)n[nH]c1Nc1ccc(C(F)(F)F)cc1	< 4.30
Cc1n[nH]c(Nc2ccc(C#N)cc2)c1C#N	5.49
CCOC(=O)c1c(C)n[nH]c1Nc1ccc(C(F)(F)F)cc1	< 4.30

Notebook: pull reported pIC50 for Dihydroorotate dehydrogenase (quinone), mitochondrial (Homo sapiens, UniProt Q02127), entry Cc1n[nH]c(N(C)c2ccc(C(F)(F)F)cc2)c1C#N
< 4.30

Notebook: pull reported pIC50 for Dihydroorotate dehydrogenase (quinone), mitochondrial (Homo sapiens, UniProt Q02127), entry Cc1n[nH]c(Nc2c(F)cc(F)cc2F)c1C#N
4.65

* * *

Organism: Mus musculus
test method notes: In vitro inhibitory activity against murine antibody response to T-cell independent B-cell antigen TNP-LPS (type I)
Assay type: functional
pIC50: −log10 of the molar value.
readout type: pIC50

compound	readout type	val
Cc1n[nH]c(Nc2ccc(C(F)(F)F)cc2)c1CO	pIC50	4.67

a: Cc1n[nH]c(Nc2ccc(C(C)(C)C)cc2)c1C#N
b: CC(C)(C)c1[nH]nc(Nc2ccc(C(F)(F)F)cc2)c1C#N
c: Cc1n[nH]c(Nc2ccc(C(F)(F)F)cc2)c1C
Rank the items in ascending order with respect to pIC50. Answer by listing the labels in the requested order.
a, c, b

I: Cc1n[nH]c(Nc2cc(C(F)(F)F)cc(C(F)(F)F)c2)c1C#N
II: Cc1n[nH]c(Nc2ccc(C(F)(F)F)cc2)c1C#N
III: Cc1n[nH]c(Nc2ccc(C#N)cc2)c1C#N
// sort entries: pIC50, high to low Answer by listing the labels in the requested order.
II, III, I

1: N#Cc1c(-c2cccnc2)n[nH]c1Nc1ccc(C(F)(F)F)cc1
2: Cc1oncc1C(=O)Nc1ccc(C(F)(F)F)cc1 [LEFLUNOMIDE]
3: N#Cc1c(-c2ccncc2)n[nH]c1Nc1ccc(C(F)(F)F)cc1
// sort entries: pIC50, high to low Answer by listing the labels in the requested order.
2, 3, 1

I: Cc1n[nH]c(N(C)c2ccc(C(F)(F)F)cc2)c1C#N
II: Cc1n[nH]c(Nc2c(F)cc(F)cc2F)c1C#N
III: Cc1n[nH]c(Nc2ccc([N+](=O)[O-])cc2)c1C#N
// sort entries: pIC50, high to low Answer by listing the labels in the requested order.
III, I, II
(III: 5.19, I: 4.72, II: 4.46)

* * *

Measured IC50, listed per entry.
Organism: Mus musculus
test method notes: In vitro inhibitory activity against murine antibody response to T-cell independent B-cell antigen TNP-LPS (type I)
Assay type: functional
Write down the numeric answer in µM and omit the unit.

compound structure string	readout type	unit name	val
O=C1CCCc2n[nH]c(Nc3ccc(C(F)(F)F)cc3)c21	IC50	µM	16.7

Lab note: next compound to report on.
Which IC50 is listed for Cc1n[nH]c(Nc2ccc(OC(F)(F)F)cc2)c1C#N ?
20

* * *

Observed IC50, system UniProtKB Q02127.

compound structure string	IC50
CC(C)(C)c1[nH]nc(Nc2ccc(C(F)(F)F)cc2)c1C#N	> 50 µM
O=C1CCCc2n[nH]c(Nc3ccc(C(F)(F)F)cc3)c21	6.5 µM

Notebook: pull reported IC50 for UniProtKB Q02127, entry Cc1n[nH]c(Nc2cccc(C(F)(F)F)c2)c1C#N
> 50 µM

Notebook: pull reported IC50 for UniProtKB Q02127, entry Cc1n[nH]c(Nc2ccc(C(F)(F)F)cc2)c1C#N
2.6 µM

Notebook: pull reported IC50 for UniProtKB Q02127, entry CCNc1[nH]nc(Nc2ccc(C(F)(F)F)cc2)c1C#N
> 50 µM

Notebook: pull reported IC50 for UniProtKB Q02127, entry N#Cc1c(-c2ccccc2)n[nH]c1Nc1ccc(C(F)(F)F)cc1
> 50 µM

Notebook: pull reported IC50 for UniProtKB Q02127, entry Cc1n[nH]c(Nc2ccccc2)c1C#N
> 50 µM

Notebook: pull reported IC50 for UniProtKB Q02127, entry C/C(=N\N)c1c(C)n[nH]c1Nc1ccc(C(F)(F)F)cc1
> 50 µM

Notebook: pull reported IC50 for UniProtKB Q02127, entry Cc1cc(Nc2ccc(C(F)(F)F)cc2)[nH]n1
16.5 µM

* * *

Species on record: Mus musculus
test method notes: In vitro inhibitory activity against murine antibody response to T-cell independent B-cell antigen TNP-LPS (type I)
Format: functional
readout type: IC50 (µM)

# count of solved cases: 2
compound structure string	unit name	IC50
N#Cc1c(Nc2ccc(C(F)(F)F)cc2)n[nH]c1N	µM	14.7
N#Cc1c(C2CCCC2)n[nH]c1Nc1ccc(C(F)(F)F)cc1	µM	22.4

a: Cc1n[nH]c(NCc2ccc(C(F)(F)F)cc2)c1C#N
b: Cc1cc(Nc2ccc(C(F)(F)F)cc2)[nH]n1
Lab notebook, comparison: a versus b , higher IC50 goes to which? Use the label to indicate which entry you chose.
b
(b: 26.5 µM, a: 17.1 µM)

* * *

Organism: Mus musculus
test method notes: In vitro inhibitory activity against murine antibody response to T-cell independent B-cell antigen TNP-LPS (type I)
Assay type: functional
readout type: IC50

compound structure string	IC50
N#Cc1c(-c2ccco2)n[nH]c1Nc1ccc(C(F)(F)F)cc1	> 50 µM
Cc1n[nH]c(Nc2ccccc2)c1C#N	> 50 µM
Cc1n[nH]c(Nc2ccccc2C(F)(F)F)c1C#N	> 50 µM
CCOC(=O)c1c(C)n[nH]c1Nc1ccc(C(F)(F)F)cc1	23.8 µM
N#Cc1c(Nc2ccc(C(F)(F)F)cc2)n[nH]c1O	> 50 µM
Cc1nn(C)c(Nc2ccc(C(F)(F)F)cc2)c1C#N	23.1 µM
Cc1n[nH]c(Nc2ccc(N)cc2)c1C#N	> 50 µM

Lab note: next compound to report on.
Which IC50 is listed for Cc1ccc(Nc2[nH]nc(C)c2C#N)cc1 ?
> 50 µM
